All values here come from patent US20090162358A1.

- Assayed target: T1, human β-amyloid 1-40 (human, UniProt P05067 672-711)
- T1 construct: domain: β-amyloid (1-40); Used in solution over captured antibody (Biacore) or coated on ELISA plates; also called human Aβ peptide (1-40); Aβ peptide (1-40)
- T1 sequence (P05067 672-711 limits assumed): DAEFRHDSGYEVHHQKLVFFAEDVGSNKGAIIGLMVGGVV
- Test summary: SPR Biacore 3000; mAb captured on anti-mouse IgG, Aβ 1-40 at 4-500 nM
Measurement kind: koff (s⁻¹)

2C1 mouse monoclonal antibody (antibody, V domains shown, Mouse hybridoma antibody) VH: EVQLQQSGAELVKPGASVKLSCTGSGFNIKVYYVHWLKQLTEQGLEWIGRIDPENGETIYAPKFQDKATLTVDTSSNTAYLQLSSLTSEDTAVYYCVSSGYWGQGTTLTVSS VL: DIVMTQSAFSNPVTLGTSASISCRSSKSLLHRNGITYLYWYLQKPGQSPQLLIYQMSNLASGVPDRFTSSGSGTDFTLKISRVEAEDVGVYYCAQNLELWTFGGGTKLEIK
0.000129
5D1 mouse monoclonal antibody (antibody, V domains shown, Mouse hybridoma antibody) VH: EVQLQQSGAELVKPGASVKLSCTGSGFNIKVYYVHWLKQLTEQGLEWIGRIDPENGETKYAPKFQDKATLTVDTSSNTAYLHLSSLTSEDTAVYYCVSSGYWGQGTTLTVSS VL: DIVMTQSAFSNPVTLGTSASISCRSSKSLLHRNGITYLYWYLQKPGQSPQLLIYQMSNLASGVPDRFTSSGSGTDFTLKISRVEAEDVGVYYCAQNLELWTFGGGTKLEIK
0.000147
2E11 mouse monoclonal antibody (antibody, V domains shown, Mouse hybridoma antibody) VH: EVQLQQSGAEVVKPGASVKLSCTASGFNIKVYYIHWLKQLTEQGLEWIGRIDPENGETKYVPKFQGKATLTVDTSSNTAYLHLSSLTSEDTGVYYCVTSGYWGQGTTLTVSS VL: DIVMTQAAFSNPVALGTSASISCRSSKSLLHSNGITYLYWYLQKPGQSPQLLIYQMSNLASGVPDRFSSSGSGTDFTLRISRVEAEDVGVYYCAQNLELWTFGGGTKLEIK
0.00017
14B3 mouse monoclonal antibody (antibody, V domains shown, Mouse hybridoma antibody) VH: EVQLQQSGAELVEPGASVKLSCTGSGFNIKVYYVHWLKQLTEQGLEWIGRIDPENGETLYTPKFQGKATFTVDTSSNTAYLQLSSLTSEDTAVYYCVSSGYWGQGTTLTVSS VL: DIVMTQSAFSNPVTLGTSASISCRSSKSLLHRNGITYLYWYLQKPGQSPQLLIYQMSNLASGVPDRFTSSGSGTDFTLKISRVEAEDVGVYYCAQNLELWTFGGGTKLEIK
7.11e-05
16D4 mouse monoclonal antibody (antibody, V domains shown, Mouse hybridoma antibody) VH: EVQLQQSGAELVKPGASVKLSCTASGFNIKDYYMHWLKQLTEQGLEWIGRIDPENGETQYAPKFQGKASLTADTSSNTAYLHLSSLTSEDTAVYYCVSSGYWGQGTTLTVSS VL: DIVMTQAAFSNPVTLGTSASISCRSSKSLLHSNGITYLYWYLQKPGQSPQLLIYQMSNLASGVPDRFSSSGSGTDFTLRISRVEAEDVGVYYCAQNLELWTFGGGTKLEIK
0.000618
5C9 mouse monoclonal antibody (antibody, V domains shown, Mouse hybridoma antibody) VH: EVQLQQSGAEFVRPGASVKLSCTASGFNIKTYYIHWLKQRTDQGLEWIGRIDPEDGETKFGPKFRGKATLTADTSSNTASLQLSSLTSEDTGVYYCVTSGYWGQGTTLSVSS VL: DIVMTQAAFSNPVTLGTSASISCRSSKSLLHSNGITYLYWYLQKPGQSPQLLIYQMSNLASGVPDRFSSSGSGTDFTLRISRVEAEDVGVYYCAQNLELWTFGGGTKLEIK
0.000164
4D4 mouse monoclonal antibody (antibody, V domains shown, Mouse hybridoma antibody) VH: EVQLQQSGAELVEPGASVKLSCTGSGFNIKVYYVHWLKQLTEQGLEWIGRIDPENGETLYTPKFQGKATLTVDTSSNTAYLQLNSLTSEDTAVYYCVSSGYWGQGTSLTVSS VL: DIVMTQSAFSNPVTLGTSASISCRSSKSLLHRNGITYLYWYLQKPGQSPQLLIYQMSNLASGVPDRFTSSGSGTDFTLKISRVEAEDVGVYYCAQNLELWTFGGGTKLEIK
8.27e-05
6F6 murine monoclonal antibody (antibody, mouse IgG2a, V domains shown, also called 6F6 parental monoclonal antibody; mouse 6F6 monoclonal antibody) VH: EVQLQQSGAELVEPGASVKLSCTGSGFNIKVYYVHWLKQLTEQGLEWIGRIDPENGETIYTPKFQDKATLTVDTSSNTAYLQLSSLTSEDAAVYYCVSSGYWGQGTTLTVSS VL: DIVMTQSAFSNPVTLGTSASISCRSSKSLLHRNGITYLYWYLQKPGQPPQLLIYQMSNLASGVPDRFTSSGSGTDFTLKISRVEAEDVGVYYCAQNLELWTFGGGTKLEIK
6.57e-05
